Assay: AUC (0 to 24 hrs) in Sprague-Dawley rat at 1 mg/kg, iv
Assay type: ADME, organism-based
Parameters: time < 24 hr, dose 1 mg/kg, route intravenous
Conditions: in vivo
Below, each entry is listed alongside its reported AUC(0-t) at 24 h.
MEASUREMENT_LABEL: AUC(0-t) at 24 h (µM·h)

>  <QUERY_SMILES>
COc1cc(C(=O)N2C[C@@H](n3cc(C4CC4)nn3)C[C@H]2C(=O)NCC(c2ccccc2)c2ccccc2)ccc1CN

>  <MEASUREMENT_LABEL>
AUC(0-t) at 24 h

>  <MEASURED_NUMBER>
1.03

$$$$
>  <QUERY_SMILES>
CNC(=O)[C@@H]1C[C@H](N2CCc3c(cccc3OCCOC)C2)CN1C(=O)c1ccc(CN)c(OC)c1

>  <MEASUREMENT_LABEL>
AUC(0-t) at 24 h

>  <MEASURED_NUMBER>
3.88

$$$$

====

Hi! I'm sharing some pIC50 results obtained with Prothrombin (Homo sapiens).
pIC50: −log10 of the molar value.

>  <QUERY_SMILES>
COc1cc(C(=O)N2C[C@@H](n3cc(C4CC4)nn3)C[C@H]2C(=O)N[C@H]2CCCC[C@@H]2c2ccccc2)ccc1CN

>  <TGT>
Prothrombin (Homo sapiens)

>  <CENSORING_SIGN>
=

>  <pIC50>
4.27

$$$$
>  <QUERY_SMILES>
CNC(=O)[C@@H]1C[C@H](N2CCc3c(cccc3OCCOC)C2)CN1C(=O)c1ccc(CN)c(OC)c1

>  <TGT>
Prothrombin (Homo sapiens)

>  <CENSORING_SIGN>
<

>  <pIC50>
4.00

$$$$

====

Experiment: Lipophilicity, log P of the compound
Format: physicochemical
Settings: octanol/water
MEASUREMENT_LABEL: logP

>  <QUERY_SMILES>
NCc1ccc(C(=O)N2C[C@@H](n3cc(C4CC4)nn3)C[C@H]2C(=O)NCC(c2ccccc2)c2ccccc2)cc1

>  <MEASUREMENT_LABEL>
logP

>  <MEASURED_NUMBER>
3

$$$$

====

Assay: Dissociation constant, pKa of the compound
Assay type: physicochemical

>  <QUERY_SMILES>
COc1cc(C(=O)N2C[C@@H](n3cc(C4CC4)nn3)C[C@H]2C(=O)NCC(c2ccccc2)c2ccccc2)ccc1CN

>  <pKa>
9.2

$$$$
>  <QUERY_SMILES>
NCc1ccc(C(=O)N2C[C@@H](n3cc(C4CC4)nn3)C[C@H]2C(=O)NCC(c2ccccc2)c2ccccc2)cc1F

>  <pKa>
6.2

$$$$
>  <QUERY_SMILES>
Cc1cc(C(=O)N2C[C@@H](n3cc(C4CC4)nn3)C[C@H]2C(=O)NCC(c2ccccc2)c2ccccc2)ccc1CN

>  <pKa>
8.7

$$$$
>  <QUERY_SMILES>
NCc1ccc(C(=O)N2C[C@@H](n3cc(C4CC4)nn3)C[C@H]2C(=O)NCC(c2ccccc2)c2ccccc2)cc1

>  <pKa>
8.5

$$$$

====

Assay: Solubility of the compound at pH 6.8
Type: physicochemical
Details: buffer

>  <QUERY_SMILES>
CNC(=O)[C@@H]1C[C@H](N2CCc3c(cccc3OCCOC)C2)CN1C(=O)c1ccc(CN)c(OC)c1

>  <solubility>
> 1000 µM

$$$$
>  <QUERY_SMILES>
COc1cc(C(=O)N2C[C@@H](n3cc(C4CC4)nn3)C[C@H]2C(=O)NCC(c2ccccc2)c2ccccc2)ccc1CN

>  <solubility>
> 1000 µM

$$$$
>  <QUERY_SMILES>
NCc1ccc(C(=O)N2C[C@@H](n3cc(C4CC4)nn3)C[C@H]2C(=O)NCC(c2ccccc2)c2ccccc2)cc1

>  <solubility>
> 1000 µM

$$$$

====

Below, each entry is listed alongside its reported IC50.
Biological target: Voltage-gated inwardly rectifying potassium channel KCNH2 (Homo sapiens, UniProt Q12809)
Sequence (Q12809 whole entry): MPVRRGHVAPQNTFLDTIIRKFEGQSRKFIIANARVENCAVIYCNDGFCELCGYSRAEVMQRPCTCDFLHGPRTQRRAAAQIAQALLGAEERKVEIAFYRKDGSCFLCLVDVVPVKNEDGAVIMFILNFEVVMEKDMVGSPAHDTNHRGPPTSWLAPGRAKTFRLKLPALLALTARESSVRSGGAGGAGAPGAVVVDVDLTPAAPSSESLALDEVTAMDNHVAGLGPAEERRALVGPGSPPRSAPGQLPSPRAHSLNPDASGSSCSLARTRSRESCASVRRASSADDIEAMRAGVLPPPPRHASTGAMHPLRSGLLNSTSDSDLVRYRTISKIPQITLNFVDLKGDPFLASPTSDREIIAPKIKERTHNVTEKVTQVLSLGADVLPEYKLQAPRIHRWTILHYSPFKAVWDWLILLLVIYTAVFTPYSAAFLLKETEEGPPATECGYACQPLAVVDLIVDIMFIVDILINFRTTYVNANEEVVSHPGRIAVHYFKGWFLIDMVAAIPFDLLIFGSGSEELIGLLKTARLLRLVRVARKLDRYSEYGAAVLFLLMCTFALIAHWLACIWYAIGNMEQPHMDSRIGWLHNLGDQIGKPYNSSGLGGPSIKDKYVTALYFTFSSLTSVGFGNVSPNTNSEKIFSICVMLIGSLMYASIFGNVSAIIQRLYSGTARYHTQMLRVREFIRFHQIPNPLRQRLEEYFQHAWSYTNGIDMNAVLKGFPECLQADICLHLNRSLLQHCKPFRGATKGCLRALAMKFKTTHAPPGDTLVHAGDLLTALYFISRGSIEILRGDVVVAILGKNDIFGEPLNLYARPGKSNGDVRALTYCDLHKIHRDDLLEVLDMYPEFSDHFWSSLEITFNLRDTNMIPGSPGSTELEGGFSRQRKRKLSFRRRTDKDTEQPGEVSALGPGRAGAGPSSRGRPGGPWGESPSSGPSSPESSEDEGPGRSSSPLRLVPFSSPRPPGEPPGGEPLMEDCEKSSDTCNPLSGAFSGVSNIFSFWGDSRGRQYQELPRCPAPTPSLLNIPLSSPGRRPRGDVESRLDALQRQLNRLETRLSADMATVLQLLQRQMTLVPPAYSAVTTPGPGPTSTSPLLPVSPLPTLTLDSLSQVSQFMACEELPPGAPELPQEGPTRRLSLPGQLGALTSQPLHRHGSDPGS
Test: Displacement of [3H]-dofetilide from human ERG expressed in HEK293 cells measured after 90 mins by scintillation proximity assay

>  <QUERY_SMILES>
CNC(=O)[C@@H]1C[C@H](N2CCc3c(cccc3OC)C2)CN1C(=O)c1ccc(CN)c(OC)c1

>  <UOM>
µM

>  <CENSORING_SIGN>
>

>  <IC50>
30

$$$$
>  <QUERY_SMILES>
COc1cc(C(=O)N2C[C@@H](n3cc(C4CC4)nn3)C[C@H]2C(=O)NCC(c2ccccc2)c2ccccc2)ccc1CN

>  <UOM>
µM

>  <CENSORING_SIGN>
=

>  <IC50>
2.4

$$$$
>  <QUERY_SMILES>
COc1cc(C(=O)N2C[C@@H](n3cc(C4CC4)nn3)C[C@H]2C(=O)N2CC[C@H](c3ccccc3)C2)ccc1CN

>  <UOM>
µM

>  <CENSORING_SIGN>
=

>  <IC50>
14

$$$$
>  <QUERY_SMILES>
CNC(=O)[C@@H]1C[C@H](N2CCc3c(cccc3OCCOC)C2)CN1C(=O)c1ccc(CN)c(OC)c1

>  <UOM>
µM

>  <CENSORING_SIGN>
>

>  <IC50>
30

$$$$
>  <QUERY_SMILES>
CNC(=O)[C@@H]1C[C@H](N2CCc3c(ncnc3OCCC3CC3)C2)CN1C(=O)c1ccc(CN)c(OC)c1

>  <UOM>
µM

>  <CENSORING_SIGN>
>

>  <IC50>
30

$$$$
>  <QUERY_SMILES>
COc1cc(C(=O)N2C[C@@H](n3cc(C4CC4)nn3)C[C@H]2C(=O)N[C@@H]2C[C@H]2c2ccccc2)ccc1CN

>  <UOM>
µM

>  <CENSORING_SIGN>
=

>  <IC50>
22

$$$$
>  <QUERY_SMILES>
CNC(=O)[C@@H]1C[C@H](N2CCc3c(cccc3OCCC3CC3)C2)CN1C(=O)c1ccc(CN)c(OC)c1

>  <UOM>
µM

>  <CENSORING_SIGN>
=

>  <IC50>
11

$$$$
>  <QUERY_SMILES>
CNC(=O)[C@@H]1C[C@H](n2cc(C3CC3)nn2)CN1C(=O)c1ccc(CN)c(OC)c1

>  <UOM>
µM

>  <CENSORING_SIGN>
>

>  <IC50>
30

$$$$
>  <QUERY_SMILES>
CNC(=O)[C@@H]1C[C@H](N2CCc3ccccc3C2)CN1C(=O)c1ccc(CN)c(OC)c1

>  <UOM>
µM

>  <CENSORING_SIGN>
>

>  <IC50>
30

$$$$
>  <QUERY_SMILES>
CNC(=O)[C@@H]1C[C@H](N2CCc3c(ncnc3OCCc3ccccc3)C2)CN1C(=O)c1ccc(CN)c(OC)c1

>  <UOM>
µM

>  <CENSORING_SIGN>
>

>  <IC50>
30

$$$$
>  <QUERY_SMILES>
CNC(=O)[C@@H]1C[C@H](N2CCc3c(cccc3OCCc3ccccc3)C2)CN1C(=O)c1ccc(CN)c(OC)c1

>  <UOM>
µM

>  <CENSORING_SIGN>
=

>  <IC50>
4

$$$$
>  <QUERY_SMILES>
NCc1ccc(C(=O)N2C[C@@H](n3cc(C4CC4)nn3)C[C@H]2C(=O)NCC(c2ccccc2)c2ccccc2)cc1

>  <UOM>
µM

>  <CENSORING_SIGN>
=

>  <IC50>
0.5

$$$$

====

Target: Coagulation factor X (Homo sapiens, UniProt P00742)
Sequence (P00742 41-179 limits assumed): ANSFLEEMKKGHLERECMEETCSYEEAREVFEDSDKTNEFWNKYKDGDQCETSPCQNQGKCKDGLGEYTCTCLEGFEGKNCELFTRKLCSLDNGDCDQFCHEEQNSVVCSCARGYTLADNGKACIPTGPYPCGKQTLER
Sequence (P00742 235-488 limits assumed): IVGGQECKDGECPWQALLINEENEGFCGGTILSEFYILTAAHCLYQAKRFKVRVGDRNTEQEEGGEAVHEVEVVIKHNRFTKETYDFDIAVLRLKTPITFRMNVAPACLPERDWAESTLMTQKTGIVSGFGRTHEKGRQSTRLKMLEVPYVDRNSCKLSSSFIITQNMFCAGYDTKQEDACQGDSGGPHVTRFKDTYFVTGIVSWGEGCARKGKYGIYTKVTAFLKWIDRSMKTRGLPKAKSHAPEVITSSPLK
MEASUREMENT_LABEL: IC50 (µM)

>  <QUERY_SMILES>
COc1cc(C(=O)N2C[C@@H](n3cc(C4CC4)nn3)C[C@H]2C(=O)N[C@H]2CCCC[C@@H]2c2ccccc2)ccc1CN

>  <MEASUREMENT_LABEL>
IC50

>  <UOM>
µM

>  <MEASURED_NUMBER>
72

$$$$

====

Target: Chymotrypsin (Homo sapiens, UniProt Q99895+P17538+P40313+Q6GPI1)
Assay: Inhibition of human chymotrypsin
Assay type: protein assay
Below, each entry is listed alongside its reported IC50.
MEASUREMENT_LABEL: IC50

>  <QUERY_SMILES>
CNC(=O)[C@@H]1C[C@H](N2CCc3c(cccc3OCCOC)C2)CN1C(=O)c1ccc(CN)c(OC)c1

>  <RESULT>
> 100 µM

$$$$
>  <QUERY_SMILES>
NCc1ccc(C(=O)N2C[C@@H](n3cc(C4CC4)nn3)C[C@H]2C(=O)NCC(c2ccccc2)c2ccccc2)cc1

>  <RESULT>
> 100 µM

$$$$
>  <QUERY_SMILES>
COc1cc(C(=O)N2C[C@@H](n3cc(C4CC4)nn3)C[C@H]2C(=O)NCC(c2ccccc2)c2ccccc2)ccc1CN

>  <RESULT>
15 µM

$$$$
>  <QUERY_SMILES>
COc1cc(C(=O)N2C[C@@H](n3cc(C4CC4)nn3)C[C@H]2C(=O)N[C@H]2CCCC[C@@H]2c2ccccc2)ccc1CN

>  <RESULT>
> 100 µM

$$$$
